Test system: Schistosoma mansoni
Assay: WHO-TDR: Schistosomiasis
Format: functional, organism-based
attribute.measured: IC50 (µM)

Worked cases, IC50 given:
Entry `CCOc1ccc(NC(=O)CSc2nncc(O)n2)cc1` , Schistosoma mansoni data, IC50 value: 5.8

Entry `CCN(CC)c1cc(C)nc(Nc2ccc(NC(=O)c3c(F)cccc3F)cc2)n1` , Schistosoma mansoni data, IC50 value: 7.4

(I) Cc1ccc(NC(=O)c2oc3ccccc3c2NC(=O)CC(c2ccccc2)c2ccccc2)cc1C
(II) CN(C)CCCN(C(=O)c1cc(-c2cccs2)nc2ccccc12)c1nc2c(F)cccc2s1
Parameter check: reported IC50 is higher for which label, I or II ? Could you answer with the label of the item you picked? I
(I: 6.7 µM, II: 4.3 µM)

====

Test system: Brugia malayi
Assay: WHO-TDR: Lymphatic Filariasis;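 note: tested at 10 µM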
Format: functional
Set-up: concentration or dose not given beside the values
attribute.measured: % Inhibition (%)
Please give a number only; it is taken to be in %.

% Inhibition recorded for this compound, `CCOC(=O)N1CCC(NC(=O)CCc2csc(NC(=O)c3ccccc3)n2)CC1` , is 0

% Inhibition recorded for this compound, `Cc1cccc(-c2nc(CCNC(=O)c3ccco3)cs2)c1` , is 0

% Inhibition recorded for this compound, `CCc1nnc(NS(=O)(=O)c2ccc(NC(=O)c3nc4ccccc4s3)cc2)s1` , is 0

% Inhibition recorded for this compound, O=S(=O)(NCC(c1cccs1)N1CCOCC1)c1ccc(Cl)cc1 (stereo not drawn) , is 0

% Inhibition recorded for this compound, `CCN1CCc2c(sc(NC(=O)c3ccccc3)c2-c2nc3ccccc3s2)C1` , is 0

====

Property: IC50; scope: individual compounds
Test system: Trypanosoma cruzi
Test: WHO-TDR: Chagas disease
Type: functional, organism-based, Homo sapiens
Details: MRC5
Please give a number only; it is taken to be in µg/mL.

Worked cases, IC50 given:
Entry `O=C(Cc1csc(SCC(=O)c2ccccc2)n1)NCCC1=CCCCC1` , Trypanosoma cruzi data, IC50 value: 3.65

Entry `Cc1cc(C)c(S(=O)(=O)N2CCN(c3ccc(Nc4ccncc4)nn3)CC2)cc1C` , Trypanosoma cruzi data, IC50 value: 0.782

Entry `O=C(COc1ccc(Cl)cc1Cl)N(Cc1ccccn1)c1nc2ccccc2s1` , Trypanosoma cruzi data, IC50 value: 0.863

Entry `CC(C)c1ccc(NC(=O)c2n[nH]c3ccccc23)cc1` , Trypanosoma cruzi data, IC50 value: 2.58

Entry `Cc1cccc(Nc2nc(Nc3ccc4c(c3)OCO4)nc(N3CCOCC3)n2)c1` , Trypanosoma cruzi data, IC50 value: 2.05

Others:
Entry `COc1ccc(CCNC(=O)CSc2nnc(NC(=O)c3cc(Cl)ccc3Cl)s2)cc1OC` , Trypanosoma cruzi data, IC50 value: 0.239

Entry `O=C(Nc1nnc(Cc2cccs2)o1)c1cc(Cl)sc1Cl` , Trypanosoma cruzi data, IC50 value: 0.632

Entry `O=c1ccc(-c2ccncc2)nn1CCCNS(=O)(=O)c1ccc2c(c1)CCCC2` , Trypanosoma cruzi data, IC50 value: 4.77

Entry `O=C(Cc1cc(-c2ccc(Cl)cc2)on1)Nc1cccnc1` , Trypanosoma cruzi data, IC50 value: 2.25

Entry `CC(C)S(=O)(=O)Nc1ccc2c(c1)NC(=O)C(C)(C)CO2` , Trypanosoma cruzi data, IC50 value: 3.93

====

System: Schistosoma mansoni
Assay: WHO-TDR: Schistosomiasis
Format: functional
Set-up: concentration or dose not given beside the values
Property: % Inhibition; scope: individual compounds
Please give a number only; it is taken to be in %.

Worked cases, % Inhibition given:
% Inhibition recorded for this compound, `CN(C)CCCN(C(=O)c1ccc2c(c1)CCCC2)c1nc2ccc(Br)cc2s1` , is 66.7

% Inhibition recorded for this compound, `CCc1ccc(NC(=O)N2CCN(c3ccc(Nc4cc(C)ccn4)nn3)CC2)cc1` , is 0

% Inhibition recorded for this compound, `O=C(c1ccc2c(c1)OCCO2)N(CCCn1ccnc1)c1nc2c(F)cccc2s1` , is 0

Others:
% Inhibition recorded for this compound, `CCN(c1ccccc1)S(=O)(=O)c1ccc(C(=O)Nc2sc3c(c2C(=O)NC)CCCC3)cc1` , is 100

% Inhibition recorded for this compound, CN(CC1CCCO1)S(=O)(=O)c1ccc(C(=O)Nc2cccc(-c3nc4ccccc4o3)c2)cc1 (configuration not stated) , is 100

% Inhibition recorded for this compound, `O=C(CSC1=Nc2cccnc2Nc2ccccc21)Nc1ccc(F)c(F)c1` , is 0

% Inhibition recorded for this compound, `O=c1ccc(-c2ccc(F)cc2)nn1CCCNS(=O)(=O)/C=C/c1ccccc1` , is 0

% Inhibition recorded for this compound, `Cc1ccc(C)c(C(=O)Nc2ccc3c(c2)CCC(=O)N3Cc2ccccc2)c1` , is 0

====

Experiment: WHO-TDR: Cytotoxicity
Type: toxicity, cell-based
Settings: human, MRC5 cells
attribute.measured: IC50

Worked cases, IC50 given:
IC50 recorded for this molecule, `CCOC(=O)c1c(NC(=O)c2sc3ccccc3c2Cl)sc2c1CCN(C)C2` , is 3.6 µg/mL

IC50 recorded for this molecule, `CN(c1ccccc1)c1nnc(-c2ccc(NC(=O)Cc3cccs3)cc2)s1` , is > 12.2 µg/mL

IC50 recorded for this molecule, `Cc1cc(-c2nnc(NC(=O)c3nc4ccccc4s3)o2)nn1C` , is > 10.2 µg/mL

IC50 recorded for this molecule, `O=C(NCCOc1ccc(-c2ccc(F)cc2)nn1)c1cccc(C(F)(F)F)c1` , is > 12.2 µg/mL

Others:
IC50 recorded for this molecule, `Cc1cc(C(=O)Nc2nnc(-c3ccco3)o2)on1` , is > 7.81 µg/mL

IC50 recorded for this molecule, Cc1ccc(S(=O)(=O)N2CCCCC2CC(=O)Nc2ccc(F)c(C(F)(F)F)c2)cc1 (stereo unspecified) , is > 13.8 µg/mL

IC50 recorded for this molecule, `CCN(C1CCCCC1)S(=O)(=O)c1ccc(C(=O)Nc2nnc(-c3ccccc3)o2)cc1` , is 1.61 µg/mL

IC50 recorded for this molecule, `COC(=O)c1ccc(COc2cccc3c2CCN(Cc2ccc(Cl)cc2)C3=O)o1` , is > 12.8 µg/mL

IC50 recorded for this molecule, `COc1ccc(NC(=O)c2oc3ccccc3c2NC(=O)c2cccc(Cl)c2)c(OC)c1` , is > 13.5 µg/mL

IC50 recorded for this molecule, `Cc1cc(C)c(S(=O)(=O)NCCNc2ccc(Nc3cccc(C)n3)nn2)c(C)c1` , is 6.74 µg/mL

IC50 recorded for this molecule, `Cc1ccc2sc(N(CCN(C)C)C(=O)C3CCN(S(=O)(=O)c4cccs4)CC3)nc2c1C` , is 1.94 µg/mL

IC50 recorded for this molecule, `Cc1cc(-c2nnc(SCC(=O)Nc3cccc(C(F)(F)F)c3)o2)c(C)o1` , is > 11.9 µg/mL

IC50 recorded for this molecule, `O=C(CCc1csc(NC(=O)c2ccco2)n1)Nc1ccc(Cl)cc1` , is > 11.3 µg/mL

IC50 recorded for this molecule, `O=C(c1ccc(C(F)(F)F)cc1)N1CCN(c2ccc(Nc3cccnc3)nn2)CC1` , is 7.94 µg/mL

IC50 recorded for this molecule, CS(=O)(=O)N1CCCCC1C(=O)Nc1nc(-c2nc3ccccc3s2)cs1 (stereo unspecified) , is > 12.7 µg/mL

IC50 recorded for this molecule, O=C(Nc1ccc2c(c1)N(C(=O)C1CCCO1)CC2)c1ccco1 (stereo unspecified) , is > 9.79 µg/mL

====

Property: IC50; scope: individual compounds
Assay: WHO-TDR: Cytotoxicity
Type: toxicity, cell-based
Conditions: human, MRC5 cells

Worked cases, IC50 given:
IC50 recorded for this compound, `O=S(=O)(c1ccccc1Cl)N1CCN(c2ccc(-c3ccco3)nn2)CC1` , is > 12.1 µg/mL

IC50 recorded for this compound, `COc1ccc(C(=O)Nc2nnc(SCC(=O)NCc3ccccc3Cl)s2)c(OC)c1` , is > 14.4 µg/mL

IC50 recorded for this compound, `COC(=O)c1ccc(CSc2ccc(NC(=O)C(C)C)nn2)o1` , is > 10.1 µg/mL

IC50 recorded for this compound, `Cc1cccc(-c2nc(CCNC(=O)c3ccco3)cs2)c1` , is 4.35 µg/mL

IC50 recorded for this compound, `O=C(COc1ccc(Cl)cc1Cl)Nc1nnc(C23CC4CC(CC(C4)C2)C3)s1` , is > 13.2 µg/mL

IC50 recorded for this compound, `Cn1nccc1C(=O)Nc1sc(-c2ccccc2)cc1C(N)=O` , is 8.31 µg/mL

IC50 recorded for this compound, `Cc1ccnc(Nc2ccc(NCCNS(=O)(=O)c3ccc(F)cc3)nn2)c1` , is > 12.1 µg/mL

IC50 recorded for this compound, `COc1ccc(OC)c(Nc2nc(CC(=O)NCc3ccccc3Cl)cs2)c1` , is 2.13 µg/mL

Others:
IC50 recorded for this compound, `Cc1ccc(C)c(C(=O)Nc2ccc3c(c2)CCC(=O)N3Cc2ccccc2)c1` , is > 11.5 µg/mL

IC50 recorded for this compound, `NC(=O)Cc1csc(SCC(=O)c2ccccc2)n1` , is > 8.77 µg/mL

IC50 recorded for this compound, CN1CCCc2cc(C(CNC(=O)COc3ccc(Cl)cc3)N3CCCC3)ccc21 (centres undefined) , is > 12.8 µg/mL
